- applied conditions: 0.1N HCl, 1.0% DMSO, 24-hour incubation at ambient temperature, maximum theoretical 100 μM; first value of the cell
recorded endpoint: pH 2 solubility (μM)

P. CN(CCNC(=N)N)C(=O)N(c1nn(CC(F)(F)F)c2c(-c3ccc(C#CC(C)(C)S(C)(=O)=O)nc3[C@H](Cc3cc(F)cc(F)c3)NC(=O)Cn3nc(C(F)(F)F)c4c3C(F)(F)[C@@H]3C[C@H]43)ccc(Cl)c12)S(C)(=O)=O
Q. CC(C)(C#Cc1ccc(-c2ccc(Cl)c3c(N(C(=O)NC(COC(=O)C(=O)O)COC(=O)C(=O)O)S(C)(=O)=O)nn(CC(F)(F)F)c23)c([C@H](Cc2cc(F)cc(F)c2)NC(=O)Cn2nc(C(F)(F)F)c3c2C(F)(F)[C@@H]2C[C@H]32)n1)S(C)(=O)=O
Exercise: // which entry reports the smaller pH 2 solubility, P or Q ? Answer = label.
Solution: Q

----------
- applied conditions: 0.1N HCl, 1.0% DMSO, 24-hour incubation at ambient temperature, maximum theoretical 100 μM; first value of the cell
recorded endpoint: pH 2 solubility (μM)

* CC(C)(C#Cc1ccc(-c2ccc(Cl)c3c(N(C(=O)CN4CCOCC4)S(C)(=O)=O)nn(CC(F)(F)F)c23)c([C@H](Cc2cc(F)cc(F)c2)NC(=O)Cn2nc(C(F)(F)F)c3c2C(F)(F)[C@@H]2C[C@H]32)n1)S(C)(=O)=O | 33

A. C[C@H](O)CNC(=O)N(c1nn(CC(F)(F)F)c2c(-c3ccc(C#CC(C)(C)S(C)(=O)=O)nc3[C@H](Cc3cc(F)cc(F)c3)NC(=O)Cn3nc(C(F)(F)F)c4c3C(F)(F)[C@@H]3C[C@H]43)ccc(Cl)c12)S(C)(=O)=O
B. CC(C)(C#Cc1ccc(-c2ccc(Cl)c3c(N(C(=O)CCN4CCOCC4)S(C)(=O)=O)nn(CC(F)(F)F)c23)c([C@H](Cc2cc(F)cc(F)c2)NC(=O)Cn2nc(C(F)(F)F)c3c2C(F)(F)[C@@H]2C[C@H]32)n1)S(C)(=O)=O
Exercise: // which entry reports the smaller pH 2 solubility, A or B ? Answer = label.
Solution: A

----------
- applied conditions: 1×PBS buffer (pH 7.4), 1.0% DMSO, 24-hour incubation at ambient temperature, maximum theoretical 100 μM; second value of the cell
recorded endpoint: pH 7 solubility (μM)

Some solved cases for reference:
• CC(C)(CNC(=O)N(c1nn(CC(F)(F)F)c2c(-c3ccc(C#CC(C)(C)S(C)(=O)=O)nc3[C@H](Cc3cc(F)cc(F)c3)NC(=O)Cn3nc(C(F)(F)F)c4c3C(F)(F)[C@@H]3C[C@H]43)ccc(Cl)c12)S(C)(=O)=O)OP(=O)(O)O = 16
• CC(C)(C#Cc1ccc(-c2ccc(Cl)c3c(N(C(=O)NC(COP(=O)(O)O)COP(=O)(O)O)S(C)(=O)=O)nn(CC(F)(F)F)c23)c([C@H](Cc2cc(F)cc(F)c2)NC(=O)Cn2nc(C(F)(F)F)c3c2C(F)(F)[C@@H]2C[C@H]32)n1)S(C)(=O)=O = 16
• CC(C)(C#Cc1ccc(-c2ccc(Cl)c3c(N(C(=O)OCCN(CCC(=O)O)C(=O)OCOP(=O)(O)O)S(C)(=O)=O)nn(CC(F)(F)F)c23)c([C@H](Cc2cc(F)cc(F)c2)NC(=O)Cn2nc(C(F)(F)F)c3c2C(F)(F)[C@@H]2C[C@H]32)n1)S(C)(=O)=O = 100
• CC(C)(C#Cc1ccc(-c2ccc(Cl)c3c(N(C(=O)OCCC(C(=O)O)C(=O)O)S(C)(=O)=O)nn(CC(F)(F)F)c23)c([C@H](Cc2cc(F)cc(F)c2)NC(=O)Cn2nc(C(F)(F)F)c3c2C(F)(F)[C@@H]2C[C@H]32)n1)S(C)(=O)=O = 5

1. CC(C)(C#Cc1ccc(-c2ccc(Cl)c3c(N(C(=O)OCCC(=O)O)S(C)(=O)=O)nn(CC(F)(F)F)c23)c([C@H](Cc2cc(F)cc(F)c2)NC(=O)Cn2nc(C(F)(F)F)c3c2C(F)(F)[C@@H]2C[C@H]32)n1)S(C)(=O)=O
2. C[C@H](OC(=O)N(c1nn(CC(F)(F)F)c2c(-c3ccc(C#CC(C)(C)S(C)(=O)=O)nc3[C@H](Cc3cc(F)cc(F)c3)NC(=O)Cn3nc(C(F)(F)F)c4c3C(F)(F)[C@@H]3C[C@H]43)ccc(Cl)c12)S(C)(=O)=O)[C@H](C)OP(=O)(O)O
Exercise: Between 1 and 2 , whose recorded pH 7 solubility is greater? Answer = label.
Solution: 2
(2: 99 μM, 1: 21 μM)

Values compiled from patent US12404262B2.
